- TARGET OR SYSTEM: calcineurin (Homo sapiens, UniProt P62937+P63098+Q08209)
- PROTOCOL DESCRIPTION: Calcineurin Phosphatase (CaN) Assay
- RUN PARAMETERS: in the presence of CypA, 1:1 complex of inhibitor with CypA
pIC50: −log10 of the molar value. Starred links: 1 amine or outer side, 2 acyl side, 3 side chain; linkers in the order of their positions; H or OH if unused. Non-standard residues stand in square brackets, D forms with d. Residues, ends and D or L forms follow the SMILES beside them. X1 = C[C@@H]1CCO[C@H]1[C@H](C(=O)[*:2])N(C)[*:1]; d(aThr) = C[C@@H](O)[C@@H](N)C(=O)O; NMeL = CN[C@@H](CC(C)C)C(=O)O; dNMeL = CN[C@H](CC(C)C)C(=O)O; dNMeV = CN[C@@H](C(=O)O)C(C)C; dNMeA = CN[C@H](C)C(=O)O
Measured pIC50, listed per entry for reference.

{"COMPOUND": "CC[C@H]1NC(=O)[C@@H]([C@@H]2OCCCC[C@H]2C)N(C)C(=O)[C@@H](C(C)C)N(C)C(=O)[C@@H](CC(C)C)N(C)C(=O)[C@@H](CC(C)C)N(C)C(=O)[C@H](C)NC(=O)[C@@H](C)NC(=O)[C@@H](CC(C)C)N(C)C(=O)[C@@H](C(C)C)NC(=O)[C@H](CC(C)C)N(C)C(=O)CN(C)C1=O", "pIC50": 5.18}

Which pIC50 is reported for this compound? CC[C@H]1NC(=O)[C@@H]([C@@H]2OCN(C)C[C@H]2C)N(C)C(=O)[C@@H](C(C)C)N(C)C(=O)[C@@H](CC(C)C)N(C)C(=O)[C@@H](CC(C)C)N(C)C(=O)[C@H](C)NC(=O)[C@@H](C)NC(=O)[C@@H](CC(C)C)N(C)C(=O)[C@@H](C(C)C)NC(=O)[C@H](CC(C)C)N(C)C(=O)[C@@H](C)N(C)C1=O < 5.00

Give the measured pIC50 of CC(C)C[C@@H]1C(=O)N(C)[C@H](CC(C)C)C(=O)N(C)[C@H](C(C)C)C(=O)N(C)[C@H]([C@@H]2OCC[C@H]2C)C(=O)N[C@H]([C@@H](C)O)C(=O)N(C)[C@H](C)C(=O)N(C)[C@@H](CC(C)C)C(=O)N[C@H](C(C)C)C(=O)N(C)[C@H](CC(C)C)C(=O)N[C@H](C)C(=O)N[C@@H](C)C(=O)N1C [Compound 11] (cyclo(A[dNMeL][dNMeL][dNMeV][X1][d(aThr)][dNMeA][NMeL][dV][dNMeL][dA])) . < 5.00

Data request, read-out pIC50, for CC(C)C[C@@H]1C(=O)N(C)[C@H](CC(C)C)C(=O)N(C)[C@H](C(C)C)C(=O)N(C)[C@H]([C@@H]2OCC[C@H]2C)C(=O)N[C@H](C)C(=O)N(C)[C@H](C)C(=O)N(C)[C@@H](CC(C)C)C(=O)N[C@H](C(C)C)C(=O)N(C)[C@H](CC(C)C)C(=O)N[C@H](C)C(=O)N[C@@H](C)C(=O)N1C [Compound 10] (cyclo(A[dNMeL][dNMeL][dNMeV][X1][dA][dNMeA][NMeL][dV][dNMeL][dA])) < 5.00

Sample CC[C@H]1NC(=O)[C@@H]([C@@H]2OCN(C)C[C@H]2C)N(C)C(=O)[C@@H](C(C)C)N(C)C(=O)[C@@H](CC(C)C)N(C)C(=O)[C@@H](CC(C)C)N(C)C(=O)[C@H](C)NC(=O)[C@@H](C)NC(=O)[C@@H](CC(C)C)N(C)C(=O)[C@@H](C(C)C)NC(=O)[C@H](CC(C)C)N(C)C(=O)CN(C)C1=O — what was its pIC50? < 5.00

Quick one: pIC50 of CC[C@H]1NC(=O)[C@@H]([C@@H]2OCC[C@H]2C)N(C)C(=O)[C@@H](C(C)C)N(C)C(=O)[C@@H](CC(C)C)N(C)C(=O)[C@@H](CC(C)C)N(C)C(=O)[C@H](C)NC(=O)[C@@H](C)NC(=O)[C@@H](CC(C)C)N(C)C(=O)[C@@H](C(C)C)NC(=O)[C@H](CC(C)C)N(C)C(=O)CN(C)C1=O ? < 5.00

* * *

- PROTOCOL DESCRIPTION: physchem
- RUN PARAMETERS: 25 °C, pH 7.4, aqueous buffer, kinetic from dmso stock
Starred links: 1 amine or outer side, 2 acyl side, 3 side chain; linkers in the order of their positions; H or OH if unused. Non-standard residues stand in square brackets, D forms with d. Residues, ends and D or L forms follow the SMILES beside them. X1 = C[C@@H]1CCO[C@H]1[C@H](C(=O)[*:2])N(C)[*:1]; NMeL = CN[C@@H](CC(C)C)C(=O)O; dNMeL = CN[C@H](CC(C)C)C(=O)O; dNMeV = CN[C@@H](C(=O)O)C(C)C; dNMeA = CN[C@H](C)C(=O)O
The entries below come with measured solubility at 18 h values attached.
Write down the numeric answer in µM and omit the unit.

{"MOLECULE": "CC[C@H]1NC(=O)[C@H]([C@H]2OCC[C@H]2C)N(C)C(=O)[C@@H](C(C)C)N(C)C(=O)[C@@H](CC(C)C)N(C)C(=O)[C@@H](CC(C)C)N(C)C(=O)[C@H](C)NC(=O)[C@@H](C)NC(=O)[C@@H](CC(C)C)N(C)C(=O)[C@@H](C(C)C)NC(=O)[C@H](CC(C)C)N(C)C(=O)[C@@H](C)N(C)C1=O", "MEASURE NAME": "solubility at 18 h", "READOUT VALUE": 25}

Suppose we examine the molecule CC(C)C[C@@H]1C(=O)N(C)[C@H](CC(C)C)C(=O)N(C)[C@H](C(C)C)C(=O)N(C)[C@H]([C@@H]2OCC[C@H]2C)C(=O)N[C@H](C(C)C)C(=O)N(C)[C@H](C)C(=O)N(C)[C@@H](CC(C)C)C(=O)N[C@H](C(C)C)C(=O)N(C)[C@H](CC(C)C)C(=O)N[C@H](C)C(=O)N[C@@H](C)C(=O)N1C [Compound 6] (cyclo(A[dNMeL][dNMeL][dNMeV][X1][dV][dNMeA][NMeL][dV][dNMeL][dA])) ; what solubility at 18 h value has been reported? 50

* * *

- PROTOCOL DESCRIPTION: physchem
- RUN PARAMETERS: 25 °C, pH 7.4, aqueous buffer, kinetic from dmso stock
MEASURE NAME: solubility at 18 h (µM)
// return numeric value only (unit: µM, not printed)

See these solved cases before continuing.
{"COMPOUND": "CC(C)C[C@@H]1C(=O)N(C)[C@H](CC(C)C)C(=O)N(C)[C@H](C(C)C)C(=O)N(C)[C@H]([C@@H]2OCC[C@H]2C)C(=O)N[C@H](C(C)C)C(=O)N(C)CC(=O)N(C)[C@@H](CC(C)C)C(=O)N[C@H](C(C)C)C(=O)N(C)[C@H](CC(C)C)C(=O)N[C@H](C)C(=O)N[C@@H](C)C(=O)N1C", "READOUT VALUE": 75}
{"COMPOUND": "CC[C@@H]1C(=O)N(C)[C@@H](CC(C)C)C(=O)N[C@H](C(C)C)C(=O)N(C)[C@H](CC(C)C)C(=O)N[C@H](C)C(=O)N[C@@H](C)C(=O)N(C)[C@H](CC(C)C)C(=O)N(C)[C@H](CC(C)C)C(=O)N(C)[C@H](C(C)C)C(=O)N(C)[C@H]([C@@H]2OCC[C@H]2C)C(=O)N[C@H](CC)C(=O)N1C", "READOUT VALUE": 75}

If you can, please state the reported solubility at 18 h value of CC[C@H]1NC(=O)[C@@H](C2OC(C)C[C@H]2C)N(C)C(=O)[C@@H](C(C)C)N(C)C(=O)[C@@H](CC(C)C)N(C)C(=O)[C@@H](CC(C)C)N(C)C(=O)[C@H](C)NC(=O)[C@@H](C)NC(=O)[C@@H](CC(C)C)N(C)C(=O)[C@@H](C(C)C)NC(=O)[C@H](CC(C)C)N(C)C(=O)[C@@H](C)N(C)C1=O (some centres unmarked) . 75

Name the reported solubility at 18 h value associated with the compound CC[C@H]1NC(=O)[C@@H]([C@@H]2OCC[C@H]2C)N(C)C(=O)[C@@H](C(C)C)N(C)C(=O)[C@@H](CC(C)C)N(C)C(=O)[C@@H](CC(C)C)N(C)C(=O)[C@H](C)NC(=O)[C@@H](C)NC(=O)[C@@H](CC(C)C)N(C)C(=O)[C@@H](C(C)C)NC(=O)[C@H](CC(C)C)N(C)C(=O)[C@@H](C(F)F)N(C)C1=O 50

What value of measured solubility at 18 h is listed for CCC[C@@H]1C(=O)N(C)[C@@H](CC(C)C)C(=O)N[C@H](C(C)C)C(=O)N(C)[C@H](CC(C)C)C(=O)N[C@H](C)C(=O)N[C@@H](C)C(=O)N(C)[C@H](CC(C)C)C(=O)N(C)[C@H](CC(C)C)C(=O)N(C)[C@H](C(C)C)C(=O)N(C)[C@H]([C@@H]2OCC[C@H]2C)C(=O)N[C@H](CC)C(=O)N1C ? 50
